Provide the recorded Percent Control for the entries that follow.
test system: YSK1; construct: gene STK25; conditions: Compound Concentration (nM):1000;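 note: KINOMEscan scanMAX binding as percent activity remaining versus control; lower means stronger binding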

# compound CC(C)COC(=O)c1ccc2c(c1)/C(=C/Nc1ccc(S(N)(=O)=O)cc1)C(=O)N2 [GW416981X] ; its Percent Control = 65%

# compound COc1cc2ncnc(Nc3ccc4c(cnn4Cc4ccccc4)c3)c2cc1OC.Cl [GW282449A] ; its Percent Control = 89%

# compound COc1ccc(COc2ccc(Cc3cnc(N)nc3N)cc2OC)cc1 [GW632580X] ; its Percent Control = 100%

# compound COc1cc(C)c(N(C)C(=O)CN(C)C)cc1Nc1nc(Nc2cccc(F)c2C(N)=O)c2cc[nH]c2n1 ; its Percent Control = 100%

----------
tested on: BTK; details: Compound Concentration (nM):1000
Provide the recorded Percent Control for the entries that follow.
Answer with a number only, understood to be in %.

# molecule COc1ccc(COc2ccc(Cc3cnc(N)nc3N)cc2OC)cc1 [GW632580X] ; its Percent Control = 96

# molecule COc1cc(C=NNc2ncnc3c2cnn3-c2ccccc2)ccc1O [GW513184X] ; its Percent Control = 100

# molecule Cl.O=C(O[C@H]1CN[C@H](C#Cc2cc3ncnc(Nc4ccc5c(cnn5Cc5ccccc5)c4)c3s2)C1)N1CCOCC1 [GSK200398A] ; its Percent Control = 77

# molecule CCc1ccc(Oc2nccc(-c3c(-c4ccc(F)cc4)ncn3C3CCNCC3)n2)cc1 [SB-242719] ; its Percent Control = 100

# molecule Cl.c1ccc(Cc2nc3ccc(Nc4ncnc5ccccc45)cc3[nH]2)cc1 [GR269666A] ; its Percent Control = 100

# molecule NS(=O)(=O)c1ccc(N/N=C2\C(=O)Nc3ccc(C(=O)NCc4ccncc4)cc32)cc1 [GW300657X] ; its Percent Control = 89

# molecule COc1cc(N2CCN(C(C)C)CC2)ccc1Nc1nc(Nc2ccc(F)cc2C(=O)NC[C@@H](O)CO)c2cc[nH]c2n1 [GSK1392956A] ; its Percent Control = 100

# molecule NS(=O)(=O)c1ccc(N/N=C2\C(=O)Nc3ccc(-c4cnco4)cc32)cc1 [GW276655] ; its Percent Control = 50

# molecule COC(=O)Nc1nc2ccc(Oc3ccc(NC(=O)Nc4cc(C(F)(F)F)ccc4F)cc3)cc2s1.Cl [GW693917A] ; its Percent Control = 72

# molecule CN1CCN(C(=O)c2ccc(NC(=O)Nc3ccc(N(C)c4ccnc(Nc5ccc(CS(C)(=O)=O)cc5)n4)cc3)cc2)CC1.Cl [GW830263A] ; its Percent Control = 50

# molecule CCS(=O)(=O)c1ccc(OC)c(Nc2ncc(-c3cccc(OC)c3)o2)c1 [GW580509X] ; its Percent Control = 99

# molecule Cl.O=S1CCN(Cc2ccc(-c3ccc4ncnc(Nc5ccc(OCc6ccccc6)c(F)c5)c4c3)o2)CC1 [GW576924A] ; its Percent Control = 100

# molecule CCS(=O)(=O)c1ccc(OC)c(Nc2ncc(-c3cccc(F)c3)o2)c1 [GW621970X] ; its Percent Control = 71

# molecule O=C1Nc2ccc(C(=O)c3ccco3)cc2C1=Cc1cc(Cl)c(O)c(Cl)c1 [GW406108X] ; its Percent Control = 87

# molecule COc1cc2ncn(-c3cc(O[C@H](C)c4ccccc4Cl)c(C(N)=O)s3)c2cc1OC [GSK237701A] ; its Percent Control = 53
